B1: CLCN6 (parent)
chain: VGEIVGIITRHNLTYEFLQARLRQ

# Variants of: B1
# protocolDescription: protein stability index of a GFP-peptide fusion (GPS, HEK-293T) (PSI 1-6); higher = more stable;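 further: lentivirally expressed fusions sorted by FACS into six bins by GFP to DsRed ratio, PSI derived from sequencing read proportions per bin multiplied by bin number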
# conditionsUsed: c terminus: a fixed tail appended

mutationName	protein stability index
A20Q	2.04
R21N	2.01
E3D	2.05

Data origin, for the record: the supplement of paper PMC10567573
